B1: tRNA (parent)
chain: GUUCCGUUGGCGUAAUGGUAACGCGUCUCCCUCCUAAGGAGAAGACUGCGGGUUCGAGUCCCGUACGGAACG

# Variants of: B1
# EXPERIMENT_NOTES: yeast fitness relative to wild type (ratio to wild type); higher = fitter; tRNA-Arg(CCU), competitive growth, 37 C, YPD
Variants at the floor of the assay were thinned out.
Criterion: yeast fitness meeting or surpassing 0.6. Met: rule met. Not met: rule not met.

Look over these answered cases.
[
  {
    "VARIANT_KEY": "U2C C11G C22G",
    "LABEL": "rule not met"
  },
  {
    "VARIANT_KEY": "U32G C46A C66U",
    "LABEL": "rule not met"
  },
  {
    "VARIANT_KEY": "U2A A65C",
    "LABEL": "rule met"
  },
  {
    "VARIANT_KEY": "G25A C60A A69G",
    "LABEL": "rule not met"
  },
  {
    "VARIANT_KEY": "U3C U7G G38C",
    "LABEL": "rule not met"
  }
]

Challenge: Evaluate A21U C30U A42C C55U : yeast fitness at minimum 0.6?
Response given: rule not met

Challenge: Determine whether this variant has yeast fitness no lower than 0.6: G6A U54C
Response given: rule met

Challenge: Check if yeast fitness >= 0.6 (inclusive). Item: C11G A21U G39C G44A U47A
Response given: rule not met

Challenge: For this variant, is measured yeast fitness 0.6 or higher? C11U C22A
Response given: rule met

Challenge: Evaluate G6A G23C C29G A43U G50A A65C : yeast fitness at minimum 0.6?
Response given: rule not met

Challenge: # bool: yeast fitness of U3C C11U C27G G52A >= 0.6
Response given: rule not met

Challenge: Please check the record G23C A36U U53C and state if its yeast fitness is at or above 0.6.
Response given: rule not met
